# target.entity: p300 HAT domain (residues 1287-1666) (Homo sapiens (Human), UniProt Q09472)
# Sequence (Q09472 1287-1666): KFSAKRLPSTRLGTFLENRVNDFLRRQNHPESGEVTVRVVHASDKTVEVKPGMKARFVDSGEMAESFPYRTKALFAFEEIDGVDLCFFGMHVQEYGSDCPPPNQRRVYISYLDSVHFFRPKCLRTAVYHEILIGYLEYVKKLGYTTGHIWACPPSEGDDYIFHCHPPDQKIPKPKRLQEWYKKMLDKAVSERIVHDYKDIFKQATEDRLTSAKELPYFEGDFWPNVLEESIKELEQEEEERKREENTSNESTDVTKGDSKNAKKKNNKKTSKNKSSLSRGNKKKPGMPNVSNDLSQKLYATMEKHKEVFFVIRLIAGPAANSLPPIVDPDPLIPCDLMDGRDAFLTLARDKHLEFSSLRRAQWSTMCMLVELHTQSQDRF
# method.summary: p300 HAT SPA assay (scintillation proximity assay, acetylation of biotinylated H3(1-21) peptide)
# Format: biochemical
# measurement.conditions: p300 HAT domain; average of at least 2 replicate titrations; read-out: P300 HAT SPA IC50
pIC50: −log10 of the molar value.
Entry flag: Yes if pIC50 reaches 5; No if it does not.

I'd appreciate it if you could say whether NS(=O)(=O)c1ccc(CCNC(C(=O)c2c[nH]c3cc(C(F)(F)F)ccc23)c2ccccc2)cc1 (single isomer, unassigned) [1 Isomer 1] has pIC50 at least equal to 5.
No

Could you do the same for CC(Cc1ccc(Cl)cc1Cl)NC(C(=O)c1c[nH]c2cc(-c3cnn(C)c3)ccc12)c1ccccc1 (single isomer, unassigned) [97 Isomer 1] , please?
Yes

What do you get for O=C(c1c[nH]c2ccccc12)C(NCCc1ccc(F)cc1)c1ccccc1 (single isomer, unassigned) [22 Isomer 2] ?
Yes

One more molecule: COc1ccc2c(C(=O)C(NCCc3ccc(S(N)(=O)=O)cc3)c3ccccc3)c[nH]c2c1 (single isomer, unassigned) [51 Isomer 1]
No

Next entry: NS(=O)(=O)c1ccc(CCNC(C(=O)c2c[nH]c3cc(-n4ccnc4)ccc23)c2ccccc2)cc1 (single isomer, unassigned) [119 Isomer 2]
Yes
